# Tested on: S. aureus Newman
# ASSAY_PROCEDURE: fitness (endpoint OD595 vs no drug) (fraction); higher = more growth
# TEST_CONTEXT: first compound 37.5 µg/mL; partner 2.5 µg/mL; main component drawn

MOLECULE	fitness
CC[C@H](C)[C@H](N)C1=N[C@H](C(=O)N[C@@H](CC(C)C)C(=O)N[C@H](CCC(=O)O)C(=O)N[C@H](C(=O)N[C@H]2CCCCNC(=O)[C@H](CC(N)=O)NC(=O)[C@@H](CC(=O)O)NC(=O)[C@H](Cc3cnc[nH]3)NC(=O)[C@@H](Cc3ccccc3)NC(=O)[C@H]([C@@H](C)CC)NC(=O)[C@@H](CCCN)NC2=O)[C@@H](C)CC)CS1 [Bacitracin] + C[n+]1ccc(-c2cc[n+](C)cc2)cc1 [Paraquat]	0.315
CC[C@H](C)[C@H](N)C1=N[C@H](C(=O)N[C@@H](CC(C)C)C(=O)N[C@H](CCC(=O)O)C(=O)N[C@H](C(=O)N[C@H]2CCCCNC(=O)[C@H](CC(N)=O)NC(=O)[C@@H](CC(=O)O)NC(=O)[C@H](Cc3cnc[nH]3)NC(=O)[C@@H](Cc3ccccc3)NC(=O)[C@H]([C@@H](C)CC)NC(=O)[C@@H](CCCN)NC2=O)[C@@H](C)CC)CS1 [Bacitracin] + CN1C2=CC=CC=C2N=C3C1=CC=CC3=O [Pyocyanin]	0.18
CC[C@H](C)[C@H](N)C1=N[C@H](C(=O)N[C@@H](CC(C)C)C(=O)N[C@H](CCC(=O)O)C(=O)N[C@H](C(=O)N[C@H]2CCCCNC(=O)[C@H](CC(N)=O)NC(=O)[C@@H](CC(=O)O)NC(=O)[C@H](Cc3cnc[nH]3)NC(=O)[C@@H](Cc3ccccc3)NC(=O)[C@H]([C@@H](C)CC)NC(=O)[C@@H](CCCN)NC2=O)[C@@H](C)CC)CS1 [Bacitracin] + Cc1ncc([N+](=O)[O-])n1CCO [Metronidazole]	0.181
CC[C@H](C)[C@H](N)C1=N[C@H](C(=O)N[C@@H](CC(C)C)C(=O)N[C@H](CCC(=O)O)C(=O)N[C@H](C(=O)N[C@H]2CCCCNC(=O)[C@H](CC(N)=O)NC(=O)[C@@H](CC(=O)O)NC(=O)[C@H](Cc3cnc[nH]3)NC(=O)[C@@H](Cc3ccccc3)NC(=O)[C@H]([C@@H](C)CC)NC(=O)[C@@H](CCCN)NC2=O)[C@@H](C)CC)CS1 [Bacitracin] + CO/N=C(\C(=O)N[C@@H]1C(=O)N2C(C(=O)O)=C(COC(C)=O)CS[C@H]12)c1csc(N)n1 [Cefotaxime]	0.0237

###

# Test system: S. aureus Newman
# ASSAY_PROCEDURE: Bliss interaction score (quartile over a dose matrix) (fitness difference); higher = more antagonism (negative = synergy)
Is Bliss interaction score at least 0.05? Then Condition met. If not, Condition not met.

COMPOUND	MEASURED_TARGET	LABEL
CO[C@@]12[C@H](COC(N)=O)C3=C(C(=O)C(C)=C(N)C3=O)N1C[C@@H]1N[C@@H]12 [MitomycinC] + CC1=C\[C@@H](O)CC(=O)Cc2nc(co2)C(=O)N2CCC=C2C(=O)O[C@H](C(C)C)[C@H](C)/C=C/C(=O)NC\C=C\1 [Virginiamycin M1]	S. aureus Newman	Condition not met
CO[C@@]12[C@H](COC(N)=O)C3=C(C(=O)C(C)=C(N)C3=O)N1C[C@@H]1N[C@@H]12 [MitomycinC] + CO[C@H]1/C=C/O[C@@]2(C)Oc3c(C)c(O)c4c(O)c(c(/C=N/N5CCN(C)CC5)c(O)c4c3C2=O)NC(=O)/C(C)=C\C=C\[C@H](C)[C@H](O)[C@@H](C)[C@@H](O)[C@@H](C)[C@H](OC(C)=O)[C@@H]1C [Rifampicin]	S. aureus Newman	Condition not met
CO[C@@H]1[C@@H](OC(N)=O)[C@@H](O)[C@H](Oc2ccc3c(O)c(NC(=O)c4ccc(O)c(CC=C(C)C)c4)c(=O)oc3c2C)OC1(C)C [Novobiocin] + CC1=C\[C@@H](O)CC(=O)Cc2nc(co2)C(=O)N2CCC=C2C(=O)O[C@H](C(C)C)[C@H](C)/C=C/C(=O)NC\C=C\1 [Virginiamycin M1]	S. aureus Newman	Condition not met
CO[C@@]12[C@H](COC(N)=O)C3=C(C(=O)C(C)=C(N)C3=O)N1C[C@@H]1N[C@@H]12 [MitomycinC] + C/C(=C\C(=O)OCCCCCCCCC(=O)O)C[C@@H]1OC[C@H](C[C@@H]2O[C@H]2[C@@H](C)[C@H](C)O)[C@@H](O)[C@H]1O [Pseudomonic acid]	S. aureus Newman	Condition not met
CC(=O)NC[C@H]1CN(c2ccc(N3CCOCC3)c(F)c2)C(=O)O1 [Linezolid] + CN1C2=CC=CC=C2N=C3C1=CC=CC3=O [Pyocyanin]	S. aureus Newman	Condition not met
CC[C@H]1OC(=O)[C@H](C)[C@@H](O[C@H]2C[C@@](C)(OC)[C@@H](O)[C@H](C)O2)[C@H](C)[C@@H](O[C@@H]2O[C@H](C)C[C@H](N(C)C)[C@H]2O)[C@](C)(O)C[C@@H](C)C(=O)[C@H](C)[C@@H](O)[C@]1(C)O [Erythromycin] + CO[C@H]1/C=C/O[C@@]2(C)Oc3c(C)c(O)c4c(O)c(c(/C=N/N5CCN(C)CC5)c(O)c4c3C2=O)NC(=O)/C(C)=C\C=C\[C@H](C)[C@H](O)[C@@H](C)[C@@H](O)[C@@H](C)[C@H](OC(C)=O)[C@@H]1C [Rifampicin]	S. aureus Newman	Condition met
CC[C@H]1OC(=O)[C@H](C)[C@@H](O[C@H]2C[C@@](C)(OC)[C@@H](O)[C@H](C)O2)[C@H](C)[C@@H](O[C@@H]2O[C@H](C)C[C@H](N(C)C)[C@H]2O)[C@](C)(O)C[C@@H](C)C(=O)[C@H](C)[C@@H](O)[C@]1(C)O [Erythromycin] + CN(N=O)C(=O)N[C@@H](C=O)[C@@H](O)[C@H](O)[C@H](O)CO [Streptozotocin]	S. aureus Newman	Condition not met
CO[C@@]12[C@H](COC(N)=O)C3=C(C(=O)C(C)=C(N)C3=O)N1C[C@@H]1N[C@@H]12 [MitomycinC] + Cc1onc(-c2ccccc2)c1C(=O)N[C@@H]1C(=O)N2[C@@H]1SC(C)(C)[C@@H]2C(=O)O [Oxacillin]	S. aureus Newman	Condition not met
CC[C@H]1OC(=O)[C@H](C)[C@@H](O[C@H]2C[C@@](C)(OC)[C@@H](O)[C@H](C)O2)[C@H](C)[C@@H](O[C@@H]2O[C@H](C)C[C@H](N(C)C)[C@H]2O)[C@](C)(O)C[C@@H](C)C(=O)[C@H](C)[C@@H](O)[C@]1(C)O [Erythromycin] + CCN(CC)CCOC(=O)c1ccc(N)cc1 [Procaine]	S. aureus Newman	Condition met
CC[C@H]1OC(=O)[C@H](C)[C@@H](O[C@H]2C[C@@](C)(OC)[C@@H](O)[C@H](C)O2)[C@H](C)[C@@H](O[C@@H]2O[C@H](C)C[C@H](N(C)C)[C@H]2O)[C@](C)(O)C[C@@H](C)C(=O)[C@H](C)[C@@H](O)[C@]1(C)O [Erythromycin] + CO[C@@]12[C@H](COC(N)=O)C3=C(C(=O)C(C)=C(N)C3=O)N1C[C@@H]1N[C@@H]12 [MitomycinC]	S. aureus Newman	Condition met
CC[C@H]1OC(=O)[C@H](C)[C@@H](O[C@H]2C[C@@](C)(OC)[C@@H](O)[C@H](C)O2)[C@H](C)[C@@H](O[C@@H]2O[C@H](C)C[C@H](N(C)C)[C@H]2O)[C@](C)(O)C[C@@H](C)C(=O)[C@H](C)[C@@H](O)[C@]1(C)O [Erythromycin] + CN[C@@H]1[C@H](O[C@H]2[C@H](O[C@H]3[C@H](O)[C@@H](O)[C@H](N=C(N)N)[C@@H](O)[C@@H]3N=C(N)N)O[C@@H](C)[C@]2(O)C=O)O[C@@H](CO)[C@H](O)[C@H]1O [Streptomycin]	S. aureus Newman	Condition not met
